system: classical complement pathway; assay: In vitro haemolysis assay (inhibition of classical complement pathway); type: cell-based, human; conditions: Table 4; valine 3 versus isoleucine 3 pairs; read-out: CP hemolysis IC50
pIC50: −log10 of the molar value. Positions of bridges follow the written chain, without caps; N, C: chain ends. Residues, ends and D or L forms follow the SMILES beside them.
Rule: true for pIC50 not less than 7, false for anything less.

Quick check: does CC[C@H](C)[C@H](NC(C)=O)C(=O)N[C@H]1CSSC[C@@H](C(=O)N[C@H](C(N)=O)[C@@H](C)O)NC(=O)[C@H](CCCNC(=N)N)NC(=O)[C@H](Cc2c[nH]cn2)NC(=O)[C@H](CCC(=O)O)NC(=O)CNC(=O)[C@H](Cc2c[nH]c3ccccc23)NC(=O)[C@H](CC(=O)O)NC(=O)[C@H](CCC(N)=O)NC(=O)[C@H](Cc2c[nH]c3ccccc23)NC(=O)[C@H](C(C)C)NC1=O [A, reference compound] (Ac-ICVWQDWGEHRCT-NH2; disulfide 2-12) have pIC50 greater than or equal to 7?
false

Quick check: does CC[C@H](C)[C@H](NC(C)=O)C(=O)N[C@H]1CSSC[C@@H](C(=O)N[C@H](C(=O)N[C@@H](CCC(=O)O)C(=O)NCC(=O)N[C@@H](CCC(=O)O)C(N)=O)[C@@H](C)O)NC(=O)[C@H](CCCNC(=N)N)NC(=O)[C@H](Cc2c[nH]cn2)NC(=O)[C@H](CCC(=O)O)NC(=O)CNC(=O)[C@H](Cc2c[nH]c3ccccc23)NC(=O)[C@H](CC(=O)O)NC(=O)[C@H](CCC(N)=O)NC(=O)[C@H](Cc2c[nH]c3ccccc23)NC(=O)[C@H](C(C)C)NC1=O [J, reference compound] (Ac-ICVWQDWGEHRCTEGE-NH2; disulfide 2-12) have pIC50 greater than or equal to 7?
false

Quick check: does CC[C@H](C)[C@H](NC(C)=O)C(=O)N[C@H]1CSSC[C@@H](C(=O)N[C@H](C(N)=O)[C@@H](C)O)NC(=O)[C@H](CCCNC(=N)N)NC(=O)[C@H](Cc2c[nH]cn2)NC(=O)[C@H](CO)NC(=O)CNC(=O)[C@H](Cc2c[nH]c3ccccc23)NC(=O)[C@H](CC(=O)O)NC(=O)[C@H](CCC(N)=O)NC(=O)[C@H](Cc2c[nH]c3ccccc23)NC(=O)[C@H](C(C)C)NC1=O [B, reference compound] (Ac-ICVWQDWGSHRCT-NH2; disulfide 2-12) have pIC50 greater than or equal to 7?
false

Quick check: does CC[C@H](C)[C@H](NC(C)=O)C(=O)N[C@H]1CSSC[C@@H](C(=O)N[C@@H](CO)C(N)=O)NC(=O)[C@H](CCCNC(=N)N)NC(=O)[C@H](Cc2c[nH]cn2)NC(=O)[C@H](CCC(=O)O)NC(=O)CNC(=O)[C@H](Cc2c[nH]c3ccccc23)NC(=O)[C@H](CC(=O)O)NC(=O)[C@H](CCC(N)=O)NC(=O)[C@H](Cc2c[nH]c3ccccc23)NC(=O)[C@H](C(C)C)NC1=O [G, reference compound] (Ac-ICVWQDWGEHRCS-NH2; disulfide 2-12) have pIC50 greater than or equal to 7?
false

Quick check: does CC[C@H](C)[C@H](NC(C)=O)C(=O)N[C@H]1CSSC[C@@H](C(=O)N[C@H](C(=O)NCC(=O)N[C@@H](C)C(=O)N[C@@H](CCC(=O)O)C(=O)N[C@@H](CO)C(N)=O)[C@@H](C)O)NC(=O)[C@H](CCCNC(=N)N)NC(=O)[C@H](Cc2c[nH]cn2)NC(=O)[C@H](CCC(=O)O)NC(=O)CNC(=O)[C@H](Cc2c[nH]c3ccccc23)NC(=O)[C@H](CC(=O)O)NC(=O)[C@H](CCC(N)=O)NC(=O)[C@H](Cc2c[nH]c3ccccc23)NC(=O)[C@H]([C@@H](C)CC)NC1=O [Compound 15] (Ac-ICIWQDWGEHRCTGAES-NH2; disulfide 2-12) have pIC50 greater than or equal to 7?
true
